molecular target: T1, Cynomolgus CD3εδ Fc heterodimer (Cy CD3ε Fc + CD3δ Fc-HIS) (cynomolgus, UniProt Q95LI5 22-117; Q95LI8 22-100); assay: SPR (Biacore), Fab over immobilized CD3εδ Fc, pH 7.4
T1 construct: range 22-117;range 22-100; Made in HEK 293 cells with a heterologous signal peptide; also called Cy CD3εδ-Fc; cyno CD3εδ Fc; not shown: Fc; Fc followed by HIS tag
T1 sequence (Q95LI5 22-117, stated change not applied, form in doubt, chain 1 of 2): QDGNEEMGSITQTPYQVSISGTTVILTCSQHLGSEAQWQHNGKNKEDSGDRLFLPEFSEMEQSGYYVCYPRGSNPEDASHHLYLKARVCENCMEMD
T1 sequence (Q95LI8 22-100, stated change not applied, form in doubt, chain 2 of 2): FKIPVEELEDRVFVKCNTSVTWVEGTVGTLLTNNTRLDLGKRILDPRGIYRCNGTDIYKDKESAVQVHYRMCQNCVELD
parameter measured: Kd (nM)

>  <binder>
Antibody No. V014 (ADI-76357) Fab (Fab, V domains shown, Fab by papain digestion of the IgG1) VH: QVQLVQSGAEVKKPGASVKVSCKASGFDIKDYYMHWVRQAPGQRLEWMGWIDLENANTIYDAKFQGRVTITRDTSASTAYMELSSLRSEDTAVYYCARDQYGRYFYDVWGQGTLVTVSS VL: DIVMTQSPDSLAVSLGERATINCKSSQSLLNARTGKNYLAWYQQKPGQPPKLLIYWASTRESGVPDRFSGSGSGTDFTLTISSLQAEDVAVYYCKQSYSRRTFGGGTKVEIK

>  <observed>
11

$$$$
>  <binder>
Antibody No. A002 (ADI-50024) Fab (Fab, V domains shown, Fab by papain digestion of the IgG1) VH: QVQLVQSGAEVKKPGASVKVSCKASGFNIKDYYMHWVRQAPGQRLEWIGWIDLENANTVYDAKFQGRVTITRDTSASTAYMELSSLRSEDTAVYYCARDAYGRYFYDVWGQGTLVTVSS VL: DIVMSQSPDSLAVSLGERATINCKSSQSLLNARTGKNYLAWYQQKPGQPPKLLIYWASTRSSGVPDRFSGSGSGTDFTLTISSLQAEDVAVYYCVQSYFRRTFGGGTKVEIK

>  <observed>
0.076

$$$$
>  <binder>
Antibody No. V015 (ADI-76358) Fab (Fab, V domains shown, Fab by papain digestion of the IgG1) VH: QVQLVQSGAEVKKPGASVKVSCKASGFNIKDYYMHWVRQAPGQRLEWMGWIDLENADTIYDAKFQGRVTITRDTSASTAYMELSSLRSEDTAVYYCARDQYGRYFYDVWGQGTLVTVSS VL: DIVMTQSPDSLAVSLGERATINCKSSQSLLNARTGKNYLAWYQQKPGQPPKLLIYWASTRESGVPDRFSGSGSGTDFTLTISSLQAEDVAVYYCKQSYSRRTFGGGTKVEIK

>  <observed>
19

$$$$
>  <binder>
Antibody No. V018 (ADI-76361) Fab (Fab, V domains shown, Fab by papain digestion of the IgG1) VH: QVQLVQSGAEVKKPGASVKVSCKASGFDIKDYYMHWVRQAPGQRLEWMGWIDLEEGNTIYDAKFQGRVTITRDTSASTAYMELSSLRSEDTAVYYCARDAYGRYFYDVWGQGTLVTVSS VL: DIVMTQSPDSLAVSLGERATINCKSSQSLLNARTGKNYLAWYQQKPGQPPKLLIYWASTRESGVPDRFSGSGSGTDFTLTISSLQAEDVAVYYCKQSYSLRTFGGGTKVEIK

>  <observed>
36

$$$$
>  <binder>
Antibody No. A001 (ADI-26906) Fab (Fab, V domains shown, Fab by papain digestion of the IgG1) VH: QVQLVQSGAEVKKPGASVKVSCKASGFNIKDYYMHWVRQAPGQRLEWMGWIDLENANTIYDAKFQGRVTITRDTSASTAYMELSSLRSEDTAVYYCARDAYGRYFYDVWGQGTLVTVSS VL: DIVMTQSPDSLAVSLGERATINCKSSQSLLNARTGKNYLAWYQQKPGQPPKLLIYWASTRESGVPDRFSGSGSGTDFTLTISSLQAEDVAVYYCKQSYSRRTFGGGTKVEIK

>  <observed>
1.1

$$$$
